# subject.of.test: human vasopressin V2 receptor subtype (Homo sapiens, UniProt P30518)
# Construct: host or cells: CHO cells, stably transfected (pZeoSV vector); membranes
# Sequence (P30518 whole entry): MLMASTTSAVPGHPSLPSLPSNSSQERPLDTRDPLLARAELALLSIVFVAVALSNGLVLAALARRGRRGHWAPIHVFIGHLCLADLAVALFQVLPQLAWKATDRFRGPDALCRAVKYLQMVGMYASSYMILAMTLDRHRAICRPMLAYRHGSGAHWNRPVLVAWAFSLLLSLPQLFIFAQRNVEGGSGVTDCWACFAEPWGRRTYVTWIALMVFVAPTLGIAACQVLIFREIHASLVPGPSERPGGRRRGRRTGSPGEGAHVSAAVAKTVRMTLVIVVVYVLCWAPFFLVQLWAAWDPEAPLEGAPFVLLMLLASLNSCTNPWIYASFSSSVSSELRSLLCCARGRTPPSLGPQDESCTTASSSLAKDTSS
# test.protocol: Vasopressin binding in CHO cell membranes expressing human vasopressin V2 subtype receptors ([3H]arginine vasopressin)
# condition.set: 100 nM, values without parentheses
# Description: Vasopressin Binding in Chinese Hamster Ovary Cell Membranes Expressing Human Vasopressin V2 Subtype Receptors Chinese Hamster Ovary (CHO) cells stably transfected with the human V2 subtype receptors were obtained from M. Thibonnier, Case Western Reserve University School of Medicine, Cleveland, Ohio. A. Passaging and Amplification of Cells: […]
For each of the compounds below, state its inhibition at 0.1 µM.
Please answer in the form of a number followed by its unit of measurement.

O=C1C=C(c2ccc(C(=O)N3Cc4cccn4Cc4ccccc43)cc2)CCC1 :: 29%

Quick batch: inhibition at 0.1 µM for everything below.
1. O=C(c1ccc(C2=CCCc3ccccc32)cc1)N1Cc2cccn2Cc2ccccc21
2. CC1=C(c2ccc(C(=O)N3Cc4cccn4Cc4ccccc43)cc2C)CCCC1O (racemic)
3. Cc1cc(C(=O)N2Cc3cccn3Cc3ccccc32)ccc1C1=CCC2CCC1C2 (stereo not shown)

["61%", "2%", "18%"]

###

# subject.of.test: human vasopressin V2 receptor subtype (Homo sapiens, UniProt P30518)
# Construct: host or cells: CHO cells, stably transfected (pZeoSV vector); membranes
# test.protocol: Vasopressin binding in CHO cell membranes expressing human vasopressin V2 subtype receptors ([3H]arginine vasopressin)
# condition.set: 100 nM, values without parentheses
Would you mind telling me the reported inhibition at 0.1 µM of each entry?
Numbers only, in %.

The cases that follow already have their inhibition at 0.1 µM on record.
Cc1cc(C(=O)N2Cc3cccn3Cc3ccccc32)ccc1C1=CCC2CC1C2(C)C (centres unmarked) :: 3
CC1=C(c2ccc(C(=O)N3Cc4cccn4Cc4ccccc43)cc2)CCCC1=O :: 58
CC1(C)CCCC=C1c1ccc(C(=O)N2Cc3cccn3Cc3ccccc32)cc1 :: 43
COc1cccc(C2=C(c3ccc(C(=O)N4Cc5cccn5Cc5ccccc54)cc3C)CCCC2)c1 :: -9
COc1cc(C2=CCCc3ccccc32)c(Cl)cc1C(=O)N1Cc2cccn2Cc2ccccc21 :: 77

Provide the reported inhibition at 0.1 µM of each entry below, same order.
1. CC1=C(c2ccc(C(=O)N3Cc4cccn4Cc4ccccc43)cc2C)CCCC1=O
2. CC1=C(c2ccc(C(=O)N3Cc4cccn4Cc4ccccc43)cc2C)CCC[C@H]1O [Example 6]

74
49

Provide reported inhibition at 0.1 µM for each item, in the same order as listed.
1. CC1=C(c2ccc(C(=O)N3Cc4cccn4Cc4ccccc43)c(Cl)c2)CCCC1O (centres unmarked)
2. CO[C@@H]1CCCC(c2ccc(C(=O)N3Cc4cccn4Cc4ccccc43)cc2C)=C1C
3. O=C(c1ccc(C2=CCCc3ccccc32)cc1Cl)N1Cc2cccn2Cc2ccccc21
4. Cc1cc(C(=O)N2Cc3cccn3Cc3ccccc32)ccc1C1=CCCCC1C(C)(C)C (centres unmarked)
5. Cc1cc(C(=O)N2Cc3cccn3Cc3ccccc32)ccc1C1=CCCCC1C (centres unmarked)

[38, 86, 90, 4, 13]

Batch request: inhibition at 0.1 µM per item, same order as input.
1. COc1cc(C2=C(C)C(=O)CCC2)c(Cl)cc1C(=O)N1Cc2cccn2Cc2ccccc21
2. CC1(C)CCCC=C1c1ccc(C(=O)N2Cc3cccn3Cc3ccccc32)c(Cl)c1
3. CC1(C)C2CC=C(c3ccc(C(=O)N4Cc5cccn5Cc5ccccc54)cc3)C1C2 (centres unmarked)
4. CC1=C(c2ccc(C(=O)N3Cc4cccn4Cc4ccccc43)cc2)C(C)CCC1 (centres unmarked)

[69, 82, 17, 5]

Which inhibition at 0.1 µM value belongs to CC1=C(c2ccc(C(=O)N3Cc4cccn4Cc4ccccc43)c(Cl)c2)CCCC1=O ?
55

Reference source: patent US7022699B2
